Target: Excitatory amino acid transporter 3 (Homo sapiens)
Sequence (P43005 whole entry): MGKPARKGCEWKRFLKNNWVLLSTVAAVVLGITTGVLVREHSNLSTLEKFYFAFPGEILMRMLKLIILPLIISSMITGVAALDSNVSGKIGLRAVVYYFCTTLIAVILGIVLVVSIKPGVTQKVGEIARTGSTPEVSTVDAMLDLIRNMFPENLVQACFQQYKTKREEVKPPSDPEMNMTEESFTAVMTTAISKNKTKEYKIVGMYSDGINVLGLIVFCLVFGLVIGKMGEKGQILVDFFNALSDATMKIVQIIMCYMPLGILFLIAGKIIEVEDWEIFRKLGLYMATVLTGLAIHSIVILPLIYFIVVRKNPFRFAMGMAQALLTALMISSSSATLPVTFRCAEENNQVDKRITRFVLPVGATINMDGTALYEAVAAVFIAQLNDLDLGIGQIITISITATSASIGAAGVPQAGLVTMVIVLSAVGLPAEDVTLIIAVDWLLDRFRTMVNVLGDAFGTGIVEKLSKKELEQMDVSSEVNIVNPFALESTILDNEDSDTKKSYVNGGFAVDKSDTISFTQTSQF
Experiment: Inhibition of human EAAT3 expressed in HEK293 cells assessed as reduction in [3H]-D-Asp uptake incubated for 4 mins by scintillation counting method
Quick reference: pIC50 of the listed items.
Quick note: pIC50 values are minus log10 of concentrations in mol/L.

| SMILES | pIC50 |
| --- | --- |
| N[C@H](C(=O)O)[C@H](OCc1cccs1)C(=O)O | 5.92 |
| N[C@H](C(=O)O)[C@H](OCC1CCCCC1)C(=O)O | 5.59 |
| N[C@H](C(=O)O)[C@H](OCC1CCCCCC1)C(=O)O | 4.96 |
| N[C@H](C(=O)O)[C@H](OCc1cccc(NC(=O)CCc2ccc(C(F)(F)F)cc2)c1)C(=O)O | 6.96 |

Prompt line: Which value of pIC50 has been reported for N[C@H](C(=O)O)[C@H](OCC1CCC1)C(=O)O in the records?
Response line: 5.68

----------
Target: Excitatory amino acid transporter 3 (Homo sapiens)
Sequence (whole entry): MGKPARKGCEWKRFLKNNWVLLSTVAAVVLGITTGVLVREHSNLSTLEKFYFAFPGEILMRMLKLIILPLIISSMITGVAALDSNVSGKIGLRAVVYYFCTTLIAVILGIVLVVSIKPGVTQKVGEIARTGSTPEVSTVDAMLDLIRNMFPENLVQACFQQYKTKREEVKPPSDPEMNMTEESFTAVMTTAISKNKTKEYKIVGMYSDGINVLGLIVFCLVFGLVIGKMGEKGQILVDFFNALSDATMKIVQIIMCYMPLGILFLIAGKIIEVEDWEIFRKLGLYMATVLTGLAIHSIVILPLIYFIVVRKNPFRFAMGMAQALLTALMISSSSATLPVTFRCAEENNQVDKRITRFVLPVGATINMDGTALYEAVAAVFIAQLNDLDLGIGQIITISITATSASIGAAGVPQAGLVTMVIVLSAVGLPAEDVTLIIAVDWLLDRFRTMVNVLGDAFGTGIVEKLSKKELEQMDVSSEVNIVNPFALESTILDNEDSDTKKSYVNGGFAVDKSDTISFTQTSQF
Experiment: Inhibition of human EAAT3 expressed in HEK293 cells assessed as reduction in EC80 L-glutamate-induced response at 300 uM pre-incubated before L-glutamate addition by fluorescence-based FLIPR membrane potential blue assay
Format: cell-based
Active and inactive are the calls of the source. The rule behind the calls is not given here.
OUTCOME MEASURE: inhibition

These recorded examples may help you get a feel for the data.
| SMILES | inhibition |
| --- | --- |
| N[C@H](C(=O)O)[C@H](OCC1CCCCC1)C(=O)O | Active |
| N[C@H](C(=O)O)[C@H](OCC1CC1)C(=O)O | Active |
| C#CCO[C@H](C(=O)O)[C@H](N)C(=O)O | Active |
| N[C@H](C(=O)O)[C@H](OCc1cccs1)C(=O)O | Active |
| N[C@H](C(=O)O)[C@H](OCc1ccco1)C(=O)O | Active |

Prompt line: Which value of inhibition has been reported for N[C@H](C(=O)O)[C@H](OCC1CCCCCC1)C(=O)O in the records?
Response line: Active

Prompt line: Also N[C@H](C(=O)O)[C@H](OCC1CCCC1)C(=O)O , if possible.
Response line: Active

Prompt line: Also N[C@H](C(=O)O)[C@H](OCc1ccoc1)C(=O)O , if possible.
Response line: Active

Prompt line: Also N[C@H](C(=O)O)[C@H](OCc1ccsc1)C(=O)O , if possible.
Response line: Active

Prompt line: Also N[C@H](C(=O)O)[C@H](OCC1CCC1)C(=O)O , if possible.
Response line: Active

----------
Biological target: Excitatory amino acid transporter 4 (Rattus norvegicus)
Assay: Inhibition of rat EAAT4 expressed in tsA201 cells assessed as reduction in [3H]-D-Asp uptake incubated for 4 mins by scintillation counting method
Format: cell-based
Settings: read-out: IC50
pIC50: −log10 of the molar value.
Outcome label depends on pIC50 relative to 6: at/above gives rule met, below gives rule not met.

| SMILES | LABEL VALUE |
| --- | --- |
| N[C@H](C(=O)O)[C@H](OCC1CCC1)C(=O)O | rule not met |
| N[C@H](C(=O)O)[C@H](OCC1CC1)C(=O)O | rule not met |
| N[C@H](C(=O)O)[C@H](OCc1ccccc1)C(=O)Nc1ccc(Oc2cc(F)c(F)cc2Br)cc1 | rule met |
| N[C@H](C(=O)O)[C@H](OCc1cccc(NC(=O)CCc2ccc(C(F)(F)F)cc2)c1)C(=O)O | rule met |
| N[C@H](C(=O)O)[C@H](OCc1cccc(NC(=O)Cc2ccc(C(F)(F)F)cc2)c1)C(=O)O | rule met |

Prompt line: Reported pIC50 reaches at least 6 for N[C@H](C(=O)O)[C@H](OCC1CCCCCC1)C(=O)O ?
Response line: rule not met

Prompt line: Also N[C@H](C(=O)O)[C@H](OCC1CCCCC1)C(=O)O , if possible.
Response line: rule not met

Prompt line: Also N[C@H](C(=O)O)[C@H](OCc1cccc(NC(=O)c2ccccc2C(F)(F)F)c1)C(=O)O , if possible.
Response line: rule met

----------
Target: Excitatory amino acid transporter 4 (Rattus norvegicus, UniProt O35921)
Sequence (O35921 whole entry): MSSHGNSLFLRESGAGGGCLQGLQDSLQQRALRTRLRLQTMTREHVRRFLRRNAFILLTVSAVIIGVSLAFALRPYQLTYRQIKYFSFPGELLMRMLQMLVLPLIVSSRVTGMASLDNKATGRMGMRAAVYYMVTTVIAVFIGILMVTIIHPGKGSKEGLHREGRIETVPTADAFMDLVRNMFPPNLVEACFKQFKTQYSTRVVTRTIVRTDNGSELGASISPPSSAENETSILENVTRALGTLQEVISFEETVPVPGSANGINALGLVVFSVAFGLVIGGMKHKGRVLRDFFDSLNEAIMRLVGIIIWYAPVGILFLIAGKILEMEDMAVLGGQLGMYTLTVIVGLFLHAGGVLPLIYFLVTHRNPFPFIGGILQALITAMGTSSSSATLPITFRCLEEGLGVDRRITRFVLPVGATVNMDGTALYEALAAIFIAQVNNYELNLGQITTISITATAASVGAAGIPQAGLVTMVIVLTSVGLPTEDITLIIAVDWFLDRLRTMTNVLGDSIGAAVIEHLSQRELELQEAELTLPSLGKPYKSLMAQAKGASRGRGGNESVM
Experiment: Inhibition of rat EAAT4 expressed in tsA201 cells assessed as reduction in [3H]-D-Asp uptake incubated for 4 mins by scintillation counting method
Assay type: cell-based
Conditions: read-out: IC50
Label Satisfied when IC50 is strictly below 3000 nM; at or above that, label Not satisfied.

Known results for molecules:
| SMILES | LABEL VALUE |
| --- | --- |
| N[C@@H](CC(=O)Nc1ccc(Oc2cc(F)c(F)cc2Br)cc1)C(=O)O | Satisfied |
| N[C@H](C(=O)O)[C@H](OCc1ccsc1)C(=O)O | Not satisfied |
| N[C@@H](CC(=O)O)C(=O)O | Not satisfied |
| N[C@H](C(=O)O)[C@H](OCC1CCCC1)C(=O)O | Satisfied |

Prompt line: Consider N[C@H](C(=O)O)[C@H](OCc1ccoc1)C(=O)O . Does its IC50 lie strictly below 3000 nM?
Response line: Not satisfied

Prompt line: Also C#CCO[C@H](C(=O)O)[C@H](N)C(=O)O , if possible.
Response line: Not satisfied

Prompt line: Also N[C@H](C(=O)O)[C@H](O)C(=O)O , if possible.
Response line: Satisfied

Prompt line: Also N[C@H](C(=O)O)[C@H](OCc1ccccc1)C(=O)Nc1ccc2c(c1)Cc1ccccc1-2 , if possible.
Response line: Satisfied

Prompt line: Also N[C@H](C(=O)O)[C@H](OCc1cccc(NC(=O)c2cccc(C(F)(F)F)c2)c1)C(=O)O , if possible.
Response line: Satisfied
